// data source = paper PMC9073595

Test system: RPE1 (normal human immortalized retinal pigment epithelial cell line)
Assay: MTT assay on normal cells, RPE1
Type: cell-based
Settings: RPE-1, RPE1 normal (non-cancer) cell line, read-out: IC50, μM ± SD, RPE1
Readout kind: IC50 (µM)
Field: numeric (µM). Do not append units.

In [3]: df
Out[3]:
                              smiles_string  unit_of_measure  value_measured
0  CCNC(=O)N1C/C(=C\c2ccc(OC)cc2)C(=O)/C(=C/c2ccc(OC)cc2)C1               µM            47.7
1  CCNC(=O)N1C/C(=C\c2cccs2)C(=O)/C(=C/c2cccs2)C1               µM            47.4
2  O=C1/C(=C/c2ccc(Cl)cc2)CN(C(=O)NCc2ccccc2)C/C1=C\c1ccc(Cl)cc1               µM            11.4

API: the following record is the query input.
Form field: reported IC50 of O=C1/C(=C/c2ccccc2)CN(C(=O)Nc2ccccc2)C/C1=C\c1ccccc1 16.6
